- Study system: EPHB2 (UniProt P29323)
- Sequence (P29323 whole entry, looked up): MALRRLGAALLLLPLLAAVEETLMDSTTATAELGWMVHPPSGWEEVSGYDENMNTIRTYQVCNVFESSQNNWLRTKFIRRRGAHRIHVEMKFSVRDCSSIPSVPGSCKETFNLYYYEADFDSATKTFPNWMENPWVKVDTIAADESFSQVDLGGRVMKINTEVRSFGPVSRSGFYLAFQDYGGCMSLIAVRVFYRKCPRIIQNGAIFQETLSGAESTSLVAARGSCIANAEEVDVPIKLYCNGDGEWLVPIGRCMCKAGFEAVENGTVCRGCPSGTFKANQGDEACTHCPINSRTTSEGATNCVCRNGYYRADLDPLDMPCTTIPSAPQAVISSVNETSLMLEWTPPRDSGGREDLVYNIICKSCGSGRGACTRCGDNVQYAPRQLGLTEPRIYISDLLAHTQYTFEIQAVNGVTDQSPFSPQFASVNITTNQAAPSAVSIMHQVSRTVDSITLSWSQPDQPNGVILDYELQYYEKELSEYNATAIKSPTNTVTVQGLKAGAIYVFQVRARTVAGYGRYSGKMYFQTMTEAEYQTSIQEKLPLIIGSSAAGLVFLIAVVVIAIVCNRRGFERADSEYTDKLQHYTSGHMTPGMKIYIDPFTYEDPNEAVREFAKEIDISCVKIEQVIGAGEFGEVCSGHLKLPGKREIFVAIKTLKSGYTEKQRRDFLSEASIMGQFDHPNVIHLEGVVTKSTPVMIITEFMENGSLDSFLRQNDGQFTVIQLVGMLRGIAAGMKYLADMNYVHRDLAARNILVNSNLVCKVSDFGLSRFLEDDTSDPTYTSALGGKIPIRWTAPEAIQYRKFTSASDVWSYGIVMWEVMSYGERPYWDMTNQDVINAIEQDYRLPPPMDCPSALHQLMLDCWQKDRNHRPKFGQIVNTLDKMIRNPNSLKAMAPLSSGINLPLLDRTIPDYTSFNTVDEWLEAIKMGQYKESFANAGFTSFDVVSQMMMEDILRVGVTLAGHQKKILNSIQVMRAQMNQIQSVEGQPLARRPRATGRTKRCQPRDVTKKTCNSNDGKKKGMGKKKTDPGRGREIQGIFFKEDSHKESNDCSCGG
- Measurement description: phosphorylation enrichment, bacterial display (enrichment ratio); higher = better substrate or ligand; peptides without Tyr show the background;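 further: 11-residue human phosphosite peptides and single-mutation variants displayed on the E. coli surface, counted by deep sequencing, each peptide's frequency after selection divided by its frequency in the unselected input library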;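 further: frequency after pTyr selection over input frequency; kinase dosed for 20-30% of maximal phosphorylation in three min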
What phosphorylation enrichment was measured for each of the following?
Output spec: single numeric token, no unit.

Q: // lookup phosphorylation enrichment | system=EPHB2 (UniProt P29323) | key= VDASFCGGRGV [ANTXR2_Y381_Y381C_YF]
Ans: 0.495

Q: Item: HTVVSYAEVRA [CLOCK_Y378]
Ans: 0.809

Q: What do you get for NDLMEYAKQHG [ASS1_Y163] ?
Ans: 0.471

Q: Try this sequence too: SGRPGYCLGTR [SCO1_Y60]
Ans: 0.51

Q: Then this sequence: VHNLNYFKKTT [FGFR3_Y647_D646N_YF]
Ans: 0.314

Q: Would you kindly repeat that for MFFSTYDRDND [FGB_Y408] ?
Ans: 0.578

Q: Repeat with TQKLAYMELQQ [CENPF_Y700]
Ans: 0.454

Q: Subsequent entry: RVGVDYEGRGC [PLOD1_Y675_G678R]
Ans: 0.464

Q: Then this sequence: FMKEPYIQSRF [HIPK4_Y175_V171M_YF]
Ans: 0.412

Q: Further, for FRRITYFNWRH [PDE6B_Y556_H557Y_YF] ?
Ans: 0.625

Q: What do we get for KLIETCFSKNF [PLP1_Y50_Y50C_YF] ?
Ans: 0.523

Q: Continue with QKDTFYGLRSL [IGSF10_Y126]
Ans: 0.927

Q: Similarly, EPVSDYINANV [PTPN11_Y304_I309V] ?
Ans: 0.486

Q: # iterate: ADRNHYRRFPR [YBX1_Y145_YF]
Ans: 0.54

Q: Consider next the sequence MLEAPYVDRNS [F10_Y384_V382A] in the same way.
Ans: 0.451

Q: Same read-out for SAAAIYMVRHP [PMP22_Y117_T118M] ?
Ans: 1.82

Q: # repeat for NPQKSYFILLF [WAS_Y83_R86L_YF]
Ans: 0.551

Q: ADEQIYWQIAA [CSKtide_2014] , same question.
Ans: 1.37

Q: Next sequence: MARDISRASFF [ALK_Y1278_Y1278S_YF]
Ans: 0.467

Q: And for HCHEGYILHGA [SVEP1_Y2921] ?
Ans: 0.746

Q: Repeat with YETSHYLASPD [CTNND2_Y1217_P1218L]
Ans: 0.767

Q: What do you have for RAQIRYAQEHD [NSD1_Y1987_R1984Q] ?
Ans: 0.575

Q: How about QPSALYEDRYL [ASS1_Y83_S79P] ?
Ans: 1.16

Q: Here is the next sequence: ATDLAYFLVCK [ASL_Y375_R379C_YF]
Ans: 0.617

Q: Lookup NVSILYTASQA [CTNNA1_Y222_P219S]
Ans: 0.51

Q: Can you handle FADIAYIFRHG [PAH_Y166_N167I_YF] next?
Ans: 0.487

Q: Follow-up entry: LFEDCYLLGTS [ASS1_Y87_R86C_YF]
Ans: 0.716

Q: Can you check ESFRLYPPVPQ [CYP4B1_Y377] next?
Ans: 0.477

Q: Next: LVTRSYLLGNS [LMNA_Y646]
Ans: 0.68
